Data origin, for the record: patent US9771332B2

TGT: hERG potassium channel (Homo sapiens, UniProt Q12809)
Construct: host or cells: CHO cells (PrecisiON hERG-CHO Recombinant Cell Line)
Sequence (Q12809 whole entry): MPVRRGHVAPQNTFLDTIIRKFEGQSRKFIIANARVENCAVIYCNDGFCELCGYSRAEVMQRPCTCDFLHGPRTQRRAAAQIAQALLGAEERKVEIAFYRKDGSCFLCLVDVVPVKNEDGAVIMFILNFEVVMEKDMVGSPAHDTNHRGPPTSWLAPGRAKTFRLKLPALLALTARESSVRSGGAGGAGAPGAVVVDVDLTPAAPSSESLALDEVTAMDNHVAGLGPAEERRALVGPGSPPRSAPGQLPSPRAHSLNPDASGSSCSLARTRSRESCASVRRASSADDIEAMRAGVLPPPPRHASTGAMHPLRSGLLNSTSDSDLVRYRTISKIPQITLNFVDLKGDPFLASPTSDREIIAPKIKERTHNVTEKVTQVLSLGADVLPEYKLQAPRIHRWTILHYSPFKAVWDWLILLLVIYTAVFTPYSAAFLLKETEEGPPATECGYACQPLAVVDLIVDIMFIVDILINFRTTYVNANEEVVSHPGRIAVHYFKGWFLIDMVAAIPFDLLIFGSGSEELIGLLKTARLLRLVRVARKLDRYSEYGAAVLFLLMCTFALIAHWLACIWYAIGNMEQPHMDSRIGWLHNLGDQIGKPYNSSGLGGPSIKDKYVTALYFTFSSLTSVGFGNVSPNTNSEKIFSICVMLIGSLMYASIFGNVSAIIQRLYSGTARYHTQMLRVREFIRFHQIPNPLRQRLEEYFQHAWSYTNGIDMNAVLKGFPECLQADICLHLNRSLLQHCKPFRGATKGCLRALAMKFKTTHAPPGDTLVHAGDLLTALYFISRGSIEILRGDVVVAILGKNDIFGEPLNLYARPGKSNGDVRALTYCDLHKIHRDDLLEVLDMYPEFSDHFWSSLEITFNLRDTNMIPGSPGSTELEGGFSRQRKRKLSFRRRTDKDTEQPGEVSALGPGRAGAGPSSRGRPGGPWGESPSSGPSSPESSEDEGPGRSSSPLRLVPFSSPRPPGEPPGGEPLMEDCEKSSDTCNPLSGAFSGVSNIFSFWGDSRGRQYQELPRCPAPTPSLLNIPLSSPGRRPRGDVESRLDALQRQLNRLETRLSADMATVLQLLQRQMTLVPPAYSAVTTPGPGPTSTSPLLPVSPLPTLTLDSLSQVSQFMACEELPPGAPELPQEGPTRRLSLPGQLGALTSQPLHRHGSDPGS
PROTOCOL: hERG Assay (Qpatch HT automated patch clamp, hERG-transfected CHO cells)
Format: cell-based
CONDITION_DESCRIPTION: human, pH 7.4; at 300 uM
Structures can show the parent of a compound that is named as a salt.
OBSERVATION_TYPE: inhibition at 5 min, 300 µM (%)
Answer format: numeric, % implied, no suffix.

In the examples that follow, each entry is paired with its recorded inhibition at 5 min, 300 µM.
Ask: What does the record list as inhibition at 5 min, 300 µM for Cc1ccc(OCCO)c(-c2cc(=O)[nH]c(=S)n2CCN)c1 [Compound A, hydrochloride] ?
Reply: 9

Ask: What does the record list as inhibition at 5 min, 300 µM for COc1ccc(Cl)cc1-c1cc(=O)[nH]c(=S)n1CC(N)=O ?
Reply: 15

Ask: What does the record list as inhibition at 5 min, 300 µM for COc1ccc(-c2cc(=O)[nH]c(=S)n2CC(=O)NCCN)c(OC)c1 ?
Reply: 25

We now examine a further compound.
Ask: What does the record list as inhibition at 5 min, 300 µM for COc1ccc(C)cc1-c1cc(=O)[nH]c(=S)n1CCN ?
Reply: 63

* * *

TGT: MPO (Homo sapiens, UniProt P05164)
Construct: endogenous in cells
Sequence (P05164 279-745 limits assumed): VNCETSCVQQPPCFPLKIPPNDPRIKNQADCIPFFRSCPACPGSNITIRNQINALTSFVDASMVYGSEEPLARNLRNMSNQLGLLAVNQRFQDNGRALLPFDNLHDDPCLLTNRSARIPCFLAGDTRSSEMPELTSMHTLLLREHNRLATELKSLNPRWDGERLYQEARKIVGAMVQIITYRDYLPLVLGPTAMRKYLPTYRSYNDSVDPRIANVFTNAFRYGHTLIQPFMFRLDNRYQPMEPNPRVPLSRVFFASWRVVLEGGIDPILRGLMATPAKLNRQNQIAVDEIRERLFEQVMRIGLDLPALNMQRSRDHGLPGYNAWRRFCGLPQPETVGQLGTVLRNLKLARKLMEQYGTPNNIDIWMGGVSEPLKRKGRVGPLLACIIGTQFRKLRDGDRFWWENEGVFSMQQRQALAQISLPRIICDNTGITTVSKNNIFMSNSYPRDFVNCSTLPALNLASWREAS
Sequence (P05164 165-273 limits assumed): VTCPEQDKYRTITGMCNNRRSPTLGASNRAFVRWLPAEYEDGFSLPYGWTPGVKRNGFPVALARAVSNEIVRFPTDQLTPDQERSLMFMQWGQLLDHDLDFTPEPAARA
PROTOCOL: Human Whole Blood Assay for Irreversible Inhibition of MPO
CONDITION_DESCRIPTION: LPS-stimulated human whole blood, 4 hour incubation; irreversible inhibition of active MPO
Counter-ions that a name gives are not always drawn.
OBSERVATION_TYPE: IC50 (µM)
Answer format: numeric, µM implied, no suffix.

In the examples that follow, each entry is paired with its recorded IC50.
Ask: Test system MPO (Homo sapiens, UniProt P05164); read-out IC50; what value for COc1ccc(C)cc1-c1cc(=O)[nH]c(=S)n1CC(N)=O ?
Reply: 2.5

Ask: Test system MPO (Homo sapiens, UniProt P05164); read-out IC50; what value for Cc1ccc(OCCO)c(-c2cc(=O)[nH]c(=S)n2CCN)c1 [Compound A, hydrochloride] ?
Reply: 0.55

Ask: Test system MPO (Homo sapiens, UniProt P05164); read-out IC50; what value for COc1ccc(C)cc1-c1cc(=O)[nH]c(=S)n1CCN ?
Reply: 0.99

Ask: Test system MPO (Homo sapiens, UniProt P05164); read-out IC50; what value for COc1ccc(Cl)cc1-c1cc(=O)[nH]c(=S)n1CCN ?
Reply: 0.8

Ask: Test system MPO (Homo sapiens, UniProt P05164); read-out IC50; what value for NCCn1c(-c2cc(Cl)ccc2OCCO)cc(=O)[nH]c1=S ?
Reply: 1.3

We now examine a further molecule.
Ask: Test system MPO (Homo sapiens, UniProt P05164); read-out IC50; what value for COc1ccc(-c2cc(=O)[nH]c(=S)n2CC(=O)NCCN)c(OC)c1 ?
Reply: 0.6

* * *

TGT: hERG potassium channel (Homo sapiens, UniProt Q12809)
Construct: host or cells: CHO cells (PrecisiON hERG-CHO Recombinant Cell Line)
PROTOCOL: hERG Assay (Qpatch HT automated patch clamp, hERG-transfected CHO cells)
Type: cell-based
CONDITION_DESCRIPTION: fit to a concentration-response curve; read-out: hERG IC50 (determined by curve fitting)
A collection of molecules and their measured IC50
Answer format: numeric, µM implied, no suffix.

Ask: Test system hERG potassium channel (Homo sapiens, UniProt Q12809); read-out IC50; what value for COc1ccc(Cl)cc1-c1cc(=O)[nH]c(=S)n1CCN ?
Reply: 33

We now examine a further molecule.
Ask: Test system hERG potassium channel (Homo sapiens, UniProt Q12809); read-out IC50; what value for COc1ccc(C)cc1-c1cc(=O)[nH]c(=S)n1CCN ?
Reply: 160

* * *

TGT: hERG potassium channel (Homo sapiens)
Construct: host or cells: CHO cells (PrecisiON hERG-CHO Recombinant Cell Line)
PROTOCOL: hERG Assay (Qpatch HT automated patch clamp, hERG-transfected CHO cells)
Format: cell-based
CONDITION_DESCRIPTION: human, pH 7.4; at 100 uM
A collection of compounds and their measured inhibition at 5 min, 100 µM
Answer format: numeric, % implied, no suffix.

Ask: What does the record list as inhibition at 5 min, 100 µM for NCCn1c(-c2cc(Cl)ccc2OCCO)cc(=O)[nH]c1=S ?
Reply: 23

Ask: What does the record list as inhibition at 5 min, 100 µM for COc1ccc(Cl)cc1-c1cc(=O)[nH]c(=S)n1CCN ?
Reply: 75

Next:
Ask: What does the record list as inhibition at 5 min, 100 µM for COc1ccc(C)cc1-c1cc(=O)[nH]c(=S)n1CCN ?
Reply: 40

* * *

A collection of compounds and their measured Therapeutic ratio hERG IC50/MPO IC50
TGT: hERG potassium channel (Homo sapiens, UniProt Q12809)
Construct: host or cells: CHO cells (PrecisiON hERG-CHO Recombinant Cell Line)
PROTOCOL: hERG Assay (Qpatch HT automated patch clamp, hERG-transfected CHO cells)
Format: cell-based
CONDITION_DESCRIPTION: hERG IC50 divided by MPO IC50 in human whole blood
Counter-ions that a name gives are not always drawn.
Quick one: just the number, no unit, thanks!

In the examples that follow, each entry is paired with its recorded Therapeutic ratio hERG IC50/MPO IC50.
Ask: What does the record list as Therapeutic ratio hERG IC50/MPO IC50 for COc1ccc(Cl)cc1-c1cc(=O)[nH]c(=S)n1CCN [C] ?
Reply: 41

Ask: What does the record list as Therapeutic ratio hERG IC50/MPO IC50 for NCCn1c(-c2cc(Cl)ccc2OCCO)cc(=O)[nH]c1=S [Compound E] ?
Reply: 260

Ask: What does the record list as Therapeutic ratio hERG IC50/MPO IC50 for COc1ccc(C)cc1-c1cc(=O)[nH]c(=S)n1CCN [D] ?
Reply: 162

Ask: What does the record list as Therapeutic ratio hERG IC50/MPO IC50 for Cc1ccc(OCCO)c(-c2cc(=O)[nH]c(=S)n2CCN)c1 [Compound A, hydrochloride] ?
Reply: 5515

Next:
Ask: What does the record list as Therapeutic ratio hERG IC50/MPO IC50 for COc1ccc(-c2cc(=O)[nH]c(=S)n2CC(=O)NCCN)c(OC)c1 [G] ?
Reply: 1500

* * *

TGT: hERG potassium channel (Homo sapiens, UniProt Q12809)
Construct: host or cells: CHO cells (PrecisiON hERG-CHO Recombinant Cell Line)
PROTOCOL: hERG Assay (Qpatch HT automated patch clamp, hERG-transfected CHO cells)
Assay type: cell-based
CONDITION_DESCRIPTION: human, pH 7.4; at 30 uM
OBSERVATION_TYPE: inhibition at 5 min, 30 µM (%)
Answer format: numeric, % implied, no suffix.

Ask: What does the record list as inhibition at 5 min, 30 µM for COc1ccc(Cl)cc1-c1cc(=O)[nH]c(=S)n1CCN ?
Reply: 49

* * *

TGT: hERG potassium channel (Homo sapiens, UniProt Q12809)
Construct: host or cells: CHO cells (PrecisiON hERG-CHO Recombinant Cell Line)
PROTOCOL: hERG Assay (Qpatch HT automated patch clamp, hERG-transfected CHO cells)
Format: cell-based
CONDITION_DESCRIPTION: extrapolated from single-point % inhibition; read-out: hERG IC50 (extrapolated from % activity shown)
Structures can show the parent of a compound that is named as a salt.
OBSERVATION_TYPE: IC50 (µM)
Answer format: numeric, µM implied, no suffix.

Ask: What does the record list as IC50 for NCCn1c(-c2cc(Cl)ccc2OCCO)cc(=O)[nH]c1=S ?
Reply: 335

Ask: What does the record list as IC50 for COc1ccc(-c2cc(=O)[nH]c(=S)n2CC(=O)NCCN)c(OC)c1 ?
Reply: 900

Next:
Ask: What does the record list as IC50 for Cc1ccc(OCCO)c(-c2cc(=O)[nH]c(=S)n2CCN)c1 [Compound A, hydrochloride] ?
Reply: 3030

Ask: What does the record list as IC50 for COc1ccc(Cl)cc1-c1cc(=O)[nH]c(=S)n1CC(N)=O ?
Reply: 1700
